Could you please report measured Activity for the items listed next?
- TARGET OF ASSAY: UniProt P31645
- ASSAY TEXT: Binding affinity at SERT
Answers are plain numbers, in nM.

CCOc1cccc(F)c1O[C@@H](c1ccccc1)[C@@H]1CNCCO1 ... 2570
Fc1ccc(O[C@@H](c2ccccc2)[C@@H]2CNCCO2)c(F)c1 ... 617

Okay, next one:
Item under review: `Fc1cccc(F)c1O[C@@H](c1cccc2c1OCC2)[C@@H]1CNCCO1` . Reported Activity?
445

----------
- TARGET OF ASSAY: Sodium-dependent serotonin transporter (Homo sapiens) (UniProt P31645)
- Sequence (P31645 whole entry, looked up): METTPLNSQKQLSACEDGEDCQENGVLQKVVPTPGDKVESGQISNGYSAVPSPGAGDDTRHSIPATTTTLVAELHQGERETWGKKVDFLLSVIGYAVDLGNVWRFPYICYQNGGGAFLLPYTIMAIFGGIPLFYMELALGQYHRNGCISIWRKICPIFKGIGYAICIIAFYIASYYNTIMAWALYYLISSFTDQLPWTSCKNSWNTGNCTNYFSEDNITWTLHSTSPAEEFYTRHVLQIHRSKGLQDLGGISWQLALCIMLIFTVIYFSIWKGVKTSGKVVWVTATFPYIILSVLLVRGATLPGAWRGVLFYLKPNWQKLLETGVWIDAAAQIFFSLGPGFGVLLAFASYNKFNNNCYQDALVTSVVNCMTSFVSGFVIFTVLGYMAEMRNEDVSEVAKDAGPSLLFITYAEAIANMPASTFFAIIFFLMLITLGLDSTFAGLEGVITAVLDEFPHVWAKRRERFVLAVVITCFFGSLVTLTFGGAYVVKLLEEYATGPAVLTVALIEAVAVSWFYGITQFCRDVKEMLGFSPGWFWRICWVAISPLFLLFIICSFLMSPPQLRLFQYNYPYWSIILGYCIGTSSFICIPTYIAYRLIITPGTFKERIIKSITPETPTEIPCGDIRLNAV
- ASSAY TEXT: Binding affinity at SERT
Please provide measured Activity for the entries that follow.

Answered examples (5):
CCOc1ccccc1O[C@@H](c1cccnc1)[C@@H]1CNCCO1 ... > 10 µM
Cc1coc([C@@H](Oc2c(F)cccc2F)[C@@H]2CNCCO2)n1 ... > 10 µM
Cc1ccc(C(C)C)c(O[C@@H](c2ccccn2)[C@@H]2CNCCO2)c1 ... > 8.4 µM
N#Cc1ccccc1O[C@@H](c1ccccc1)[C@@H]1CNCCO1 ... > 10 µM
CS(=O)(=O)c1ccccc1O[C@@H](c1ccccc1)[C@@H]1CNCCO1 ... > 10 µM

Alright, here's another compound for you.
Notebook: pull reported Activity for Sodium-dependent serotonin transporter (Homo sapiens) (UniProt P31645), entry Cc1coc([C@H](Oc2c(F)cccc2F)[C@@H]2CNCCO2)n1 (stereo in doubt; form 2)
> 10 µM

----------
- TARGET OF ASSAY: UniProt P31645
- ASSAY TEXT: Binding affinity at SERT
Hi there, I'd appreciate the recorded Activity for every entry that follows.

Cc1coc([C@H](Oc2c(F)cccc2F)[C@@H]2CNCCO2)n1 (stereo in doubt; form 1) ... > 4.5 µM
Fc1cccc(F)c1O[C@@H](c1ncco1)[C@@H]1CNCCO1 ... > 10 µM
COc1cccc(F)c1O[C@@H](c1ccccc1)[C@@H]1CNCCO1 ... > 3.5 µM

Moving on to another compound below.
Tell me the measured Activity of `Fc1cccc(F)c1O[C@@H](c1nccs1)[C@@H]1CNCCO1` , please.
> 10 µM
